These data points were gathered from paper PMC9482650.

Biological target: T1, RADIL, Q96JH8
T1 sequence (Q96JH8 971-1071, limits assumed, looked up): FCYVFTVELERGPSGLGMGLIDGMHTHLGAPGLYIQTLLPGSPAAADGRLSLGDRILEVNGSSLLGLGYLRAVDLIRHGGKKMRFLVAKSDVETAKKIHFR
Test: holdup assay
Parameters: key: below the threshold = too weak to quantify, mostly under pKd 3.1 to 4
Conditions: plain residues with an end cap or a label only (N-terminal biotin on a linker: ado-ado)
parameter: pKd

>>> measured_value("KKTPVSRSHL [SLC22A3, O75751]")
"below the threshold"
>>> measured_value("KPDKQEEFYA [SDC3, O75056]")
"below the threshold"
>>> measured_value("GQNMTVSVVI [PRLHR, P49683]")
4.26
>>> measured_value("LVEEEEPMNL [HDAC7, Q8WUI4]")
"below the threshold"
